# System: 135F2 (fetal-II hepatoblastoma organoid with high liver markers)
# assay: area under the viability dose-response curve (AUC) (AUC (arbitrary units, max 500 = no viability loss)); higher = less sensitive (higher viability)
# measurementSetup: exposure time: 120 h; concentration range: 0.1 nM - 10 µM, 6 doses
Give measured area under the viability dose-response curve for each item. Keep answers brief.
Give bare numbers.

Example compounds with recorded area under the viability dose-response curve:
CC[C@H](NC(=O)[C@H](C)NC)C(=O)N1C[C@@H](O)C[C@H]1Cc1c(-c2[nH]c3cc(F)ccc3c2C[C@@H]2C[C@H](O)CN2C(=O)[C@H](CC)NC(=O)[C@H](C)NC)[nH]c2cc(F)ccc12 [Birinapant] : 483
Cc1ccc(NC(=O)c2ccc(CN3CCN(C)CC3)cc2)cc1Nc1nc(-c2cccnc2)cs1 [Masitinib] : 473
NC1(c2ccc(-c3nc4ccn5c(=O)[nH]nc5c4cc3-c3ccccc3)cc2)CCC1 [MK-2206] : 462

Dear colleague, could you send me area under the viability dose-response curve for each of the items below? Thanks.
1. Cc1cc(-c2ncc(CC(=O)Nc3ccc(-c4cnccn4)cn3)cc2C)ccn1 [LGK974]
2. CO[C@H]1/C=C/C[C@H](C)[C@@H](C)S(=O)(=O)NC(=O)c2ccc3c(c2)N(C[C@@H]2CC[C@H]21)C[C@@]1(CCCc2cc(Cl)ccc21)CO3 [AMG-176]
3. CCOC(=O)CCNc1cc(N2CCc3ccccc3CC2)nc(-c2ccccn2)n1 [GSK J4]
4. O=C(NOC[C@H](O)CO)c1ccc(F)c(F)c1Nc1ccc(I)cc1F

[A]
499
431
468
376

Dear colleague, could you send me area under the viability dose-response curve for each of the items below? Thanks.
1. CC1=C(/C=C/C(C)=C/C=C/C(C)=C/C(=O)Nc2ccc(O)cc2)C(C)(C)CCC1 [Fenretinide]
2. Cc1cc(C)cc(C(=O)NOCCCCCC(=O)NO)c1 [LMK-235]
3. Cc1[nH]c2ccccc2c1CCNCc1ccc(/C=C/C(=O)NO)cc1 [Panobinostat]
4. Cc1c(C(=O)Nc2ccc(N3C[C@@H](C)O[C@@H](C)C3)nc2)cccc1-c1ccc(OC(F)(F)F)cc1 [Sonidegib]
5. CC[C@@H]1C(=O)N(C)c2cnc(Nc3ccc(C(=O)N[C@H]4CC[C@H](N5CCN(CC6CC6)CC5)CC4)cc3OC)nc2N1C(C)C [Volasertib]
6. COc1cccc2c1C(=O)c1c(O)c3c(c(O)c1C2=O)C[C@@](O)(C(C)=O)C[C@@H]3O[C@H]1C[C@H](N)[C@H](O)[C@H](C)O1 [Daunorubicin]

[A]
430
378
248
470
257
283

Given item O=c1cc(CN2CCOCC2)occ1OCCCCCSc1ccnc2cc(C(F)(F)F)ccc12 [EHT 1864] , the value recorded as its area under the viability dose-response curve is 475

###

# Test system: 13F2 (fetal-II hepatoblastoma organoid with high liver markers)
# assay: area under the viability dose-response curve (AUC) (AUC (arbitrary units, max 500 = no viability loss)); higher = less sensitive (higher viability)
# measurementSetup: exposure time: 120 h; concentration range: 0.1 nM - 10 µM, 6 doses
Give measured area under the viability dose-response curve for each item. Keep answers brief.
Answers are plain numbers.

Example compounds with recorded area under the viability dose-response curve:
C=CC(=O)N1CCC[C@@H](n2nc(-c3ccc(Oc4ccccc4)cc3)c3c(N)ncnc32)C1 [Ibrutinib] : 358
CN[C@@H](C)C(=O)N[C@H]1CN(C(=O)CC(C)C)CC[C@H]2CC[C@@H](C(=O)NC(c3ccccc3)c3ccccc3)N2C1=O [Xevinapant] : 498
O=C(O)C(=O)O.[NH-][C@@H]1CCCC[C@H]1[NH-].[Pt+2] [Oxaliplatin] : 488
CN(C)C(=O)c1cc2cnc(Nc3ccc(N4CCNCC4)cn3)nc2n1C1CCCC1 [Ribociclib] : 422

Dear colleague, could you send me area under the viability dose-response curve for each of the items below? Thanks.
1. N#CC1(c2ccc(NC(=O)c3cccnc3NCc3ccncc3)cc2)CCCC1 [Apatinib]
2. CCCCCCCCCCCCCCCCCCOP(=O)([O-])OC1CC[N+](C)(C)CC1 [Perifosine]
3. CN(C)C/C=C/C(=O)Nc1ccc(C(=O)Nc2cccc(Nc3ncc(Cl)c(-c4c[nH]c5ccccc45)n3)c2)cc1 [THZ1]
4. CC(C)C[C@H](NC(=O)[C@H](CCc1ccccc1)NC(=O)CN1CCOCC1)C(=O)N[C@@H](Cc1ccccc1)C(=O)N[C@@H](CC(C)C)C(=O)[C@@]1(C)CO1 [Carfilzomib]

[A]
1. 484
2. 480
3. 276
4. 217
